- Test system: MS2 coat protein
- ASSAY SUMMARY: apparent KD of MS2 coat protein; designed switch direction (-1 OFF switch, 1 ON switch): -1; higher = weaker reporter binding
- TEST SETTINGS: Eterna round: R95; input ligand: microRNA oligo, concentration not stated
READOUT NAME: apparent KD of MS2 coat protein

Value sought for every listed sequence: apparent KD of MS2 coat protein.
1. UAAAAGCGGAAGGAUAUGUGUCUAAAGUCUGUAGCAGAAGGUCCGACAUGAGGAUCACCCAUGUGACCUGGUGC [Biatceis] (puzzle: Exclusion 6)
2. GAUUAUGCGAGCUUUAGGGACAUGAGGAUCACCCAUGUUCGUCUUAUUAGUCUAAGUACACUGACAUACCUAAAUCU [JMF 61] (puzzle: Sensor v3, turn-off variant 1)
3. AGAUGUAGAUACCGAUCCUACAUGAGGAUCACCCAUGUAGCUAGACGUGCUCGCGUGGCUCGUCAGACUACCAGUAG [salish99_TOv1_r3_091] (puzzle: Sensor v3, turn-off variant 1)

10.3 nM
14.2 nM
211 nM
